# Assay Summary: plasma stability assay, rat plasma
# Format: in vitro ADME
# Measurement Parameters: rat, plasma, pH 7.4, Half-life, 37 °C, pH 7.4, 0-120 min
Measured Endpoint: half-life at 5 μM

// Input: Cc1ccc(-c2csc(-c3ccc(NC(=O)C4CCN(S(=O)(=O)c5ccccc5Cl)CC4)cc3)n2)cc1 . Output its half-life at 5 μM only. ~30 min

====

# Assay Summary: plasma stability assay, human plasma
# Assay type: in vitro ADME
# Measurement Parameters: pH 7.4
Measured Endpoint: half-life at 5 μM

Look up half-life at 5 μM of Cc1ccc(-c2csc(-c3ccc(NC(=O)C4CCN(S(=O)(=O)c5ccccc5Cl)CC4)cc3)n2)cc1 and report it. 6.83 h
